# credit: PubChem BioAssay (Tox21)

Give measured max response for each item. Keep answers brief.
test: qHTS RealTime-Glo MT Cell Viability Assay in HEK293 cells - 40 hour (AID 1224874); details: RealTime-Glo luminescence; stronger effect = lower value; note: % is set by controls: 0 for no effect and ±100 for the full control effect
Inconclusive results are not listed.
The reply should contain only the number, in %.

Problem: Could you share which max response value was measured for "CCCc1c(OCCCOc2ccc(OCC(=O)O)cc2)ccc(C(C)=O)c1O" ?
Result: -7.6

Problem: What max response value was documented for this molecule, "O=Cc1c(Cl)cccc1Cl" ?
Result: -15.3

Problem: What value of max response has been reported for the following molecule? CCC(C(=O)OCCOCCN(CC)CC)c1ccccc1 (centres undefined)
Result: 4.17

Problem: What measured max response goes with "CN1Cc2cc(C(=O)N3CCC(C4CCNCC4)CC3)ccc2N[C@@H](CC(=O)O)C1=O" ?
Result: 0.441

Problem: Which max response is listed for OCC1CC=CCC1 (centres undefined) ?
Result: -1.94

Problem: Which max response is reported for this molecule? "CCCOC(=O)c1ccc(N)cc1"
Result: -15

Problem: # lookup: max response of O=C(O)C(Cc1cc(I)c(O)c(I)c1)c1ccccc1 (centres undefined)
Result: 0.775

Problem: Fill blank: measured max response of the molecule CO/N=C1\CN(c2nc3c(cc2F)c(=O)c(C(=O)O)cn3C2CC2)CC1CN (centres undefined) is ____.
Result: 8.45

Problem: Value lookup for max response; key = "CCn1nc(C)c2c1C(=O)NCC(c1ccc(O)cc1)=N2"
Result: 0.626

Problem: What value of measured max response is listed for "CC(C)(O)c1ccccc1CC[C@@H](SCC1(CC(=O)O)CC1)c1cccc(/C=C/c2ccc3ccc(Cl)cc3n2)c1" ?
Result: 0.38

Problem: Looking for the measured max response of "Nc1ccc(S(=O)(=O)O)c(N)c1" , can you help?
Result: -8.29

Problem: Recorded max response for "OC(CCCN1CCCCC1)(c1ccccc1)c1ccccc1" , please?
Result: 0.842

Problem: I have this molecule here, "O=C(O)c1snc(Cl)c1Cl" , and I need its recorded max response.
Result: 13.2

Problem: Please give the measured max response for this molecule: CCC1(C)CC(=O)NC1=O (centres undefined)
Result: 1.67

Problem: Recorded max response for "CCC(C)=O" , please?
Result: 15.5

Problem: I am curious: what max response value has been reported for "CCCCCCCCCCCC[N+](C)(C)CCCS(=O)(=O)[O-]" ?
Result: -0.977

Problem: State the recorded max response for this entry: CCCCC(CC)COC(=O)COc1ccc(Cl)cc1C (centres undefined)
Result: 14.7

Problem: Using the record for CCC(C(=O)OCCN(CC)CC)c1ccccc1 (centres undefined) , report its max response.
Result: 8.92

Problem: # lookup: max response of "O=C(CS)OCCOC(=O)CS"
Result: 0.141

Problem: Look at this molecule and give its reported max response. "Fc1c(F)c(F)c(Br)c(F)c1F"
Result: 0.266

Problem: Entry "CC1=NN(c2ccc(C(=O)O)cc2)C(=O)C1" has what max response?
Result: -25.1

Problem: Look up max response for this molecule: "C=CCNc1nc(NCC=C)nc(N2CCN(C(c3ccc(F)cc3)c3ccc(F)cc3)CC2)n1"
Result: -23.1

Problem: GET /values?readout=max response&item= "CC(C)C(=O)O"
Result: 9.49

Problem: Entry "CCOC(=O)c1ccccc1OC" : reported max response = ?
Result: -4.86

Problem: What value of max response has been recorded for this entry: "[O]=[Bi]"
Result: 3.42

Problem: What value of measured max response is listed for "CCCOCCOCCO" ?
Result: 2.29

Problem: Give its max response value. Item: C=CC(C)(O)CCCC(C)CCCC(C)CCCC(C)C (centres undefined)
Result: 6.13

Problem: So what's the measured max response for this one? "CCN(Cc1cccc(S(=O)(=O)O)c1)c1ccc(C(=C2C=CC(=[N+](CC)Cc3cccc(S(=O)(=O)[O-])c3)C=C2)c2ccccc2)cc1"
Result: 3.22

Problem: Which max response is reported for this molecule? "COc1ccc(CCC(=O)c2c(O)cc(O[C@@H]3O[C@H](CO)[C@@H](O)[C@H](O)[C@H]3O[C@@H]3O[C@@H](C)[C@H](O)[C@@H](O)[C@H]3O)cc2O)cc1O"
Result: 12.3

Problem: Would you kindly share the measured max response for CC1C2CC(CC2C2CCCC(O)C2)C1(C)C (centres undefined) ?
Result: -15.9

Problem: Look up max response: "O=C(O)c1c(O)c(-c2ccccc2)nc2ccccc12"
Result: 0.412

Problem: Report max response for "CO[C@H]1O[C@H](CO)[C@@H](O)[C@H](O)[C@H]1O" please.
Result: 5.92

Problem: Given the molecule CC(N)CN (centres undefined) , what is its reported max response?
Result: 2.08

Problem: Please give the measured max response for this molecule: "CCCCCCCCSCCO"
Result: 0.336

Problem: Requested read-out: max response. Entry: "O=S1OCCO1"
Result: 21

Problem: Endpoint output: max response of "CCCCCCOC(=O)CCCCCCCC(=O)OCCCCCC" . Value?
Result: 1.87

Problem: Can you share its max response? I mean this molecule: "C=C(C)C(=O)OCCOC(=O)CC(C)=O"
Result: 1.19

Problem: # input molecule: "CC(=O)N(c1onc(C)c1C)S(=O)(=O)c1ccc(N)cc1" ; wanted: its max response
Result: 4.86

Problem: Using the record for "CC(C)(C)C(=O)O" , report its max response.
Result: 6.48

Problem: Could you share which max response value was measured for "ON(Cc1ccccc1)Cc1ccccc1" ?
Result: 4.01

Problem: Give its max response value. Item: "CC(=O)Oc1ccc(C(=C2CCCCC2)c2ccc(OC(C)=O)cc2)cc1"
Result: 4.82

Problem: Given "NC(=O)Nc1ccc(Cl)cc1" , state its recorded max response.
Result: -8.17

Problem: Could you share which max response value was measured for "c1cnc2c(n1)CCCC2" ?
Result: 1.7

Problem: Please give the measured max response for this molecule: "CCCCCCOC(=O)C(C)C"
Result: 6.06

Problem: Return reported max response; argument: "Brc1cc(-c2ccc(Br)c(Br)c2Br)cc(Br)c1Br"
Result: 4.87

Problem: Entry "Cc1cc(OI)c(C(C)C)cc1-c1cc(C(C)C)c(OI)cc1C" has what max response?
Result: -0.141

Problem: Quick check: max response of "CCOC(=O)/C=C/C(=O)O" ?
Result: 16.2

Problem: Would you kindly share the measured max response for "O=C(/C=C/c1ccccc1)OCCCc1ccccc1" ?
Result: -1.1

Problem: Record request: max response value, item "CC(C)=CC=O"
Result: 12.5

Problem: I am curious: what max response value has been reported for CC(CCO)CCc1ccccc1 (centres undefined) ?
Result: -8.5

Problem: Look at this molecule and give its reported max response. "CCCCN(CCCC)CCCOC(=O)c1ccc(N)cc1"
Result: -19.3

Problem: If you can, please state the reported max response value of "CCOC(=O)OCC" .
Result: 7.38

Problem: Look at this molecule and give its reported max response. CC1CN(c2cc3c(cc2F)c(=O)c(C(=O)O)cn3-c2ccc(F)cc2F)CCN1 (centres undefined)
Result: 2.82

Problem: I would be grateful if you could share the reported max response for Cc1ccccc1N1C(=O)c2cc(S(N)(=O)=O)c(Cl)cc2NC1C (centres undefined) .
Result: -9.78
